Catalogue of self-splicing fitness (ln) readings, one per entry.
# test summary: self-splicing fitness, log relative to wild type (ln ratio); higher = more splicing; Tetrahymena group I intron in knt gene, E. coli kanamycin selection, DiMSum; sequences stand for … in CUCUCU…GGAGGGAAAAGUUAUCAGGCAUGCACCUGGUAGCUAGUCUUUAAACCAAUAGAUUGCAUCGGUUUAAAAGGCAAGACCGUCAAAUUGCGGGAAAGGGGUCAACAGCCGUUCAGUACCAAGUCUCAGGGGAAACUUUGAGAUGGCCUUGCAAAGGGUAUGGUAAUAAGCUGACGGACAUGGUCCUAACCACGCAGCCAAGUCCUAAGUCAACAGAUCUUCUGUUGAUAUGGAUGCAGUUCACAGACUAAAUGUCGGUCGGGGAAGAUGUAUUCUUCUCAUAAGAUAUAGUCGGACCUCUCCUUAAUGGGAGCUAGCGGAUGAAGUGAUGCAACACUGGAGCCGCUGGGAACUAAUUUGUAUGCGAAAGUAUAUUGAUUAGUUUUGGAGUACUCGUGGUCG;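 note: selection with 25 µg/mL kanamycin versus none on LB agar overnight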
# conditions used: 37 °C
assay endpoint: self-splicing fitness (ln)

chain=UUUAAGCAAUAUUACGCCGG readout_number=0.194
chain=CUGGAGCAAUAUUACGUUGA readout_number=-2.26
chain=UUCAAGCAAUAUUACGCCUU readout_number=-0.968
chain=CUAGAGCAAUAUUACGCAUC readout_number=-2.65
chain=ACAGAGCAAUAUUACGUUGG readout_number=-3.57
chain=GUACAGCAAUAUUACGGUAA readout_number=-0.97
chain=CGAUAGCAAUAUUACGUUGG readout_number=-0.0971
chain=GUUCAGCAAUAUUACGCCCC readout_number=-0.42
chain=GUUCAGCAAUAUUACGCAUC readout_number=-0.361
chain=AAAAAGCAAUAUUACGCGUU readout_number=-1.44
chain=UUGAAGCAAUAUUACGGGUA readout_number=-0.527

###

# test summary: self-splicing fitness, log relative to wild type (ln ratio); higher = more splicing; Tetrahymena group I intron in knt gene, E. coli kanamycin selection, DiMSum; sequences stand for … in CUCUCU…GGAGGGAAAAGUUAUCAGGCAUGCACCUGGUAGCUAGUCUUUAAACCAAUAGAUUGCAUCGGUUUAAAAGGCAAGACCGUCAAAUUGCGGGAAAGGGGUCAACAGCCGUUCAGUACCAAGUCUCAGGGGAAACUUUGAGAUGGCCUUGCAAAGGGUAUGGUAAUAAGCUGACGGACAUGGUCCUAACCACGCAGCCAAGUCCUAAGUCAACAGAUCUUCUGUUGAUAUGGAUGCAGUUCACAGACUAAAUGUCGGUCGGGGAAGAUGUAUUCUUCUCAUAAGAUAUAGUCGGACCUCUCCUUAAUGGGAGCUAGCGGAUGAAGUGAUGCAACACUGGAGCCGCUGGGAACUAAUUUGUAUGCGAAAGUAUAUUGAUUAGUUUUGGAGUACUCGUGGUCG
# conditions used: 37 °C
assay endpoint: self-splicing fitness (ln)

chain=AACGAGCAAUAUUACGUUGU readout_number=-3.3
chain=GAGAAGCAAUAUUACGUCUU readout_number=-2.92
chain=UCACAGCAAUAUUACGGCCG readout_number=-0.536
chain=UCACAGCAAUAUUACGGCUU readout_number=-1.85
chain=ACUCAGCAAUAUUACGACUU readout_number=0.0543
chain=GAUAAGCAAUAUUACGGAGA readout_number=-2.78

###

# test summary: self-splicing fitness, log relative to wild type (ln ratio); higher = more splicing; Tetrahymena group I intron in knt gene, E. coli kanamycin selection, DiMSum; sequences stand for … in CUCUCU…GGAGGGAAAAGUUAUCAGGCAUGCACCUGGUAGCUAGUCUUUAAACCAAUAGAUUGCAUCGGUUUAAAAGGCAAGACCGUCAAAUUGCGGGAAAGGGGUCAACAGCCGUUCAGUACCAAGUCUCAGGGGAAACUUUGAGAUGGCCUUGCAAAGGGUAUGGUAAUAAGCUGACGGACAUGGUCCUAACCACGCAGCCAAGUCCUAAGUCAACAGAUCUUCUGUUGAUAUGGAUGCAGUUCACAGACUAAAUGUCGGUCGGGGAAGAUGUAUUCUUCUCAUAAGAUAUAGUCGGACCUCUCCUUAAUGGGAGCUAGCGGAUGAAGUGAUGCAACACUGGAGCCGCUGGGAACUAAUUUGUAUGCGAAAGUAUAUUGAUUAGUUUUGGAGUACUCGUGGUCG
# conditions used: 30 °C
assay endpoint: self-splicing fitness (ln)

chain=UUUAAGCAAUAUUACGUAGG assay_endpoint="self-splicing fitness (ln)" readout_number=-0.802
chain=UGCUAGCAAUAUUACGACUU assay_endpoint="self-splicing fitness (ln)" readout_number=-0.801
chain=UCACAGCAAUAUUACGCCUA assay_endpoint="self-splicing fitness (ln)" readout_number=-1.95
chain=AGGUAGCAAUAUUACGCAAU assay_endpoint="self-splicing fitness (ln)" readout_number=-1.96

###

# test summary: self-splicing fitness, log relative to wild type (ln ratio); higher = more splicing; Tetrahymena group I intron in knt gene, E. coli kanamycin selection, DiMSum; sequences stand for … in CUCUCU…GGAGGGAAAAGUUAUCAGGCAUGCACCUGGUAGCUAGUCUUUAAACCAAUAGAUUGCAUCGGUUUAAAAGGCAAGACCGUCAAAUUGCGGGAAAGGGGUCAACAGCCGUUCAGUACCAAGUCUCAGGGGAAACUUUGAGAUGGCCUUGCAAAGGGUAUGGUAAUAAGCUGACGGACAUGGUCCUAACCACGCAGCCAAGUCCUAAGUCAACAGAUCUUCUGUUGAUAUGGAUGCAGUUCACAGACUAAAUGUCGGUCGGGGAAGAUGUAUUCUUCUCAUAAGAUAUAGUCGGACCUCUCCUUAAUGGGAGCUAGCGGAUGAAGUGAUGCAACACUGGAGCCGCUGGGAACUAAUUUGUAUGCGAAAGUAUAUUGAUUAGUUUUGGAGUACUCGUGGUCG
# conditions used: 30 °C
Catalogue of self-splicing fitness (ln) readings, one per entry.
assay endpoint: self-splicing fitness (ln)

chain=CGCUAGCAAUAUUACGCCGA readout_number=-0.916
chain=GCACAGCAAUAUUACGAGGU readout_number=-1.85
chain=GCCCAGCAAUAUUACGCGAU readout_number=-2.76
chain=GGCUAGCAAUAUUACGGGUU readout_number=-1.9
chain=UUUAAGCAAUAUUACGAUAG readout_number=-0.412
chain=AUCUAGCAAUAUUACGUCGU readout_number=-0.83
chain=GGUUAGCAAUAUUACGUAAA readout_number=-1.22
chain=GCGUAGCAAUAUUACGAAAA readout_number=-2.22
chain=UACUAGCAAUAUUACGCUGG readout_number=-4.47
chain=GUCGAGCAAUAUUACGCGUU readout_number=-1.64
chain=GCAAAGCAAUAUUACGCUCG readout_number=-0.748
chain=GUUUAGCAAUAUUACGUUCA readout_number=-0.239
chain=GCAAAGCAAUAUUACGGUAA readout_number=-0.837
chain=GAGGAGCAAUAUUACGGAGA readout_number=-2.95
chain=UACUAGCAAUAUUACGAGCA readout_number=-0.343
chain=AGCCAGCAAUAUUACGCGUA readout_number=-1.99
chain=CGCUAGCAAUAUUACGUGUU readout_number=-4.69
chain=UUUCAGCAAUAUUACGGAUA readout_number=-0.515
chain=GCUCAGCAAUAUUACGAUAU readout_number=-0.622
chain=GACCAGCAAUAUUACGAAAA readout_number=-2.05
chain=UCAGAGCAAUAUUACGCGUA readout_number=-2.57
chain=GCUUAGCAAUAUUACGCUUU readout_number=-1.23
chain=GUUAAGCAAUAUUACGAGAU readout_number=-2.48
chain=GAGAAGCAAUAUUACGGCAC readout_number=-1.28
chain=CAUUAGCAAUAUUACGGCUU readout_number=-4.46
chain=CGUAAGCAAUAUUACGUAGG readout_number=-1.09
chain=CAAUAGCAAUAUUACGGCAG readout_number=-0.535
chain=UUAGAGCAAUAUUACGAGUA readout_number=-3.31
chain=CUUGAGCAAUAUUACGAGAA readout_number=-2.73
chain=UAAAAGCAAUAUUACGGUAC readout_number=-3.76

###

Catalogue of self-splicing fitness (ln) readings, one per entry.
# test summary: self-splicing fitness, log relative to wild type (ln ratio); higher = more splicing; Tetrahymena group I intron in knt gene, E. coli kanamycin selection, DiMSum; sequences stand for … in CUCUCU…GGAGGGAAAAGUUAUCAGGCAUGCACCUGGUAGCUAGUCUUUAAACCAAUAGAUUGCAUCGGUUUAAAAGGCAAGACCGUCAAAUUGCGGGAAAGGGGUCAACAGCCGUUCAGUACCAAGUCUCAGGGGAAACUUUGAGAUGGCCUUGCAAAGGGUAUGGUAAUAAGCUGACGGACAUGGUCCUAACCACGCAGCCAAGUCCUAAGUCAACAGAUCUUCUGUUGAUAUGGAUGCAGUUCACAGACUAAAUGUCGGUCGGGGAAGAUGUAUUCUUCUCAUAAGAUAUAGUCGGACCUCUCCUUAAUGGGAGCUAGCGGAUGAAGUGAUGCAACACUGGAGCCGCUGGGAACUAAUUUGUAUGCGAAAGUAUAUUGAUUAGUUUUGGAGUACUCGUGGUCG
# conditions used: 37 °C
assay endpoint: self-splicing fitness (ln)

chain=CAUUAGCAAUAUUACGAUCA result=-1.46
chain=GGUAAGCAAUAUUACGCGAG result=-0.704
chain=GGAAAGCAAUAUUACGUUAU result=-1.16
chain=GCGCAGCAAUAUUACGCUUA result=-0.338
chain=AGCAAGCAAUAUUACGUAUC result=-1.41
chain=GUGGAGCAAUAUUACGUCCU result=-0.219
chain=CCUUAGCAAUAUUACGACUU result=-2.73
chain=UUUGAGCAAUAUUACGAUCG result=-1.81
chain=UAGGAGCAAUAUUACGCUAC result=0.223
chain=UCAAAGCAAUAUUACGGCUC result=-0.154
chain=AGCGAGCAAUAUUACGUUCC result=-1.3
chain=UAGUAGCAAUAUUACGCGAC result=-1.69
chain=GCUUAGCAAUAUUACGAGAC result=-1.54
chain=UAGCAGCAAUAUUACGUCAA result=-1.21
chain=GCUUAGCAAUAUUACGACUC result=0.619
chain=CGUGAGCAAUAUUACGCACA result=-0.702
chain=CCGUAGCAAUAUUACGAUGC result=-1.39
chain=UUAAAGCAAUAUUACGGCGG result=0.0127
chain=AGCCAGCAAUAUUACGCGUA result=-1.44
chain=AUCCAGCAAUAUUACGAUGA result=-0.285
chain=CACAAGCAAUAUUACGUGAU result=-2.5
chain=UGGCAGCAAUAUUACGAGGU result=-2.53
chain=AUGAAGCAAUAUUACGACAG result=0.414
chain=UAUCAGCAAUAUUACGAAUA result=-0.486
chain=CAGCAGCAAUAUUACGGACC result=-1.84
chain=UAUCAGCAAUAUUACGCUCC result=-0.504
chain=UAAUAGCAAUAUUACGAGAG result=-2.68
chain=ACGUAGCAAUAUUACGUUAC result=-2.83
chain=CGCUAGCAAUAUUACGGUAC result=-1.95
chain=UAAGAGCAAUAUUACGCGAU result=-2.56
chain=GUGCAGCAAUAUUACGCUGA result=-1.6
chain=CUCCAGCAAUAUUACGCGGC result=-2.08
chain=AACUAGCAAUAUUACGACAC result=-0.404
chain=CGCCAGCAAUAUUACGUAUC result=-3.92
chain=UGCCAGCAAUAUUACGAACU result=-0.854
chain=ACCAAGCAAUAUUACGACAA result=-1.11
chain=UCGCAGCAAUAUUACGUGAU result=-3.26
chain=AAACAGCAAUAUUACGCUAG result=-1.12
chain=UAAUAGCAAUAUUACGUGAA result=-1.22
chain=CAGCAGCAAUAUUACGUGGC result=-1.67
chain=UCCGAGCAAUAUUACGUCUC result=-2.99
chain=GUCCAGCAAUAUUACGUGUU result=-0.617
chain=CGACAGCAAUAUUACGCCCA result=-0.725
chain=CGUUAGCAAUAUUACGAAGG result=-0.895
chain=UAUAAGCAAUAUUACGGACU result=-0.796
chain=GGUUAGCAAUAUUACGAACU result=-0.492
chain=GCCCAGCAAUAUUACGGUUC result=-0.0899
chain=GUAGAGCAAUAUUACGAUAG result=-1.42
chain=UUCUAGCAAUAUUACGUAGC result=-2.19
chain=AAUCAGCAAUAUUACGCCAU result=-1.76
chain=AACGAGCAAUAUUACGUGAG result=-0.98
chain=AGACAGCAAUAUUACGAUAC result=-1.79
chain=UACCAGCAAUAUUACGGCCU result=0.212
chain=GAAAAGCAAUAUUACGCGGC result=-3.07
chain=UGCAAGCAAUAUUACGAAGG result=-1.47
chain=UCGCAGCAAUAUUACGUCAU result=-2.65
chain=GGUCAGCAAUAUUACGUCCA result=-1.02
chain=GGUCAGCAAUAUUACGAUCA result=0.178
chain=ACGAAGCAAUAUUACGUCCU result=-0.288
